target: Beta-galactosidase (Escherichia coli) (UniProt Q8VNN2); assay: potency against CXCR6 with APJ panel – cell-based, beta-arrestin, DiscoveRx, uHTS hits, dose response (AID 624129); details: CXCR6 beta-arrestin (DiscoveRx) antagonist cell assay, b-galactosidase, dose range 1
Sequence (Q8VNN2 whole entry, looked up): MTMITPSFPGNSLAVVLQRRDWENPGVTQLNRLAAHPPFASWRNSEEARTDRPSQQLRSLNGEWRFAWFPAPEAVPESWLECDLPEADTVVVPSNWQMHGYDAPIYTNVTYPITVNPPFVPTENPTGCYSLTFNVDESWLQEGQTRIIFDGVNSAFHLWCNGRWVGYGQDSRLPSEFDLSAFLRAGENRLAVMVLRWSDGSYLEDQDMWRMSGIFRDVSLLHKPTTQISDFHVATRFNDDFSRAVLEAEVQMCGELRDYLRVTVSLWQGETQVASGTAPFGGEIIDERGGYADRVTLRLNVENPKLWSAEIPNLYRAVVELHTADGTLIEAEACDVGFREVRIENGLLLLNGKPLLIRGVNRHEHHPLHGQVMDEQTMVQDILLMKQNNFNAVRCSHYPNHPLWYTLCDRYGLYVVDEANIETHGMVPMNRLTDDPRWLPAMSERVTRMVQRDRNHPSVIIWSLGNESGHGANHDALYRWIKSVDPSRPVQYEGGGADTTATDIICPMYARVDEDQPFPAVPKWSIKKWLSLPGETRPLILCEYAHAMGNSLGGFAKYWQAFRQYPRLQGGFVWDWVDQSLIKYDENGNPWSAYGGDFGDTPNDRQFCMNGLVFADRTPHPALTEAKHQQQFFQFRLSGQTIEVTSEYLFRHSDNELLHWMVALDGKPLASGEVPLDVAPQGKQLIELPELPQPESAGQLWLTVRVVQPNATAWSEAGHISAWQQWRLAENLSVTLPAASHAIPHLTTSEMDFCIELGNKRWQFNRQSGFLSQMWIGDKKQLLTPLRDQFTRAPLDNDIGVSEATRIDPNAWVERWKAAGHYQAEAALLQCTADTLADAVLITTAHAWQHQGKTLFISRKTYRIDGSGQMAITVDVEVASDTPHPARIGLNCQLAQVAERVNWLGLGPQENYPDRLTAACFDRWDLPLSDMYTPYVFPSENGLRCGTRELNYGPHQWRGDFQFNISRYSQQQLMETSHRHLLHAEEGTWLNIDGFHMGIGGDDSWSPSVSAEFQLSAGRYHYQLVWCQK
Active and inactive are the calls of the source. The rule behind the calls is not given here.
Return exactly one item of Yes = active, No = inactive

The examples below pair each entry with its known result.
{"compound": "C=CS(=O)(=O)c1c2cc(OC)ccc2nc2ccc(OC)cc12", "class.label": "No"}
{"compound": "Cc1ccc(OCCn2c(NC(=O)c3ccco3)nc3ccccc32)cc1", "class.label": "Yes"}
{"compound": "C=C1C(=O)C23CCC4C(C)(C(=O)OC)CCCC4(C)C2CCC1(O)C3 (stereo unspecified)", "class.label": "No"}
{"compound": "CCc1ccccc1OCC(=O)Nc1nc(-c2cccnc2)cs1", "class.label": "No"}

[in] Dear all, I need the recorded test outcome for N#CC(C#N)=C1C=CC=CN1/C(=C\c1ccco1)C(=O)c1ccccc1 , thank you.
[out] No

[in] Moving on to the next compound: COc1ccc(NC(=O)/C(Cl)=C(/Cl)S(=O)Cc2ccccc2)cn1 (stereo unspecified)
[out] No
